# assay.remarks: Thermodynamic equilibrium solubility
# Format: physicochemical
# condition.notes: simulated intestinal fluid (SIF), 25 °C, fassgf or other biorelevant, thermodynamic from solid; read-out: Solubility, SIF
measure.name: solubility
Put down the number, then write its unit next to it.

Q) I have this compound here, CCOP(=O)(OCC)C(=Cc1cc(C(C)(C)C)c(O)c(C(C)(C)C)c1)P(=O)(OCC)OCC , and I need its recorded solubility.
A) 200 µg/mL

---

# assay.remarks: Thermodynamic equilibrium solubility
# Type: physicochemical
# condition.notes: simulated gastric fluid (SGF), 25 °C, simulated gastric fluid, thermodynamic from solid; read-out: Solubility, SGF
measure.name: solubility (µg/mL)
The reply should contain only the number, in µg/mL.

Q) I have this molecule here, CCOP(=O)(OCC)C(=Cc1cc(C(C)(C)C)c(O)c(C(C)(C)C)c1)P(=O)(OCC)OCC [Compound 1a] , and I need its recorded solubility.
A) 200

---

# assay.remarks: Thermodynamic equilibrium solubility
# Type: physicochemical
# condition.notes: phosphate buffer saline (PBS), 25 °C, aqueous buffer, thermodynamic from solid; read-out: Solubility, PBS
measure.name: solubility (µg/mL)
The reply should contain only the number, in µg/mL.

Q) I have this compound here, CCOP(=O)(OCC)C(=Cc1cc(C(C)(C)C)c(O)c(C(C)(C)C)c1)P(=O)(OCC)OCC , and I need its recorded solubility.
A) 200

The origin of these recorded values is patent US10377781B2.
